# Tested on: 3T3-L1
# METHOD SUMMARY: Cytotoxicity against mouse 3T3L1 cells at 50 uM after 24 hrs by sulforhodamine B assay
# Type: cell-based
# CONDITION SET: 3t3-l1, 24 h
Below, each entry is listed with its recorded Activity.
PROPERTY NAME: Activity

* O=c1c2ccccc2oc2c(O)c(O)ccc12 [3,4-DIHYDROXYXANTHONE] | 26 to 50%
* O=c1c2ccccc2oc2ccc(O)cc12 | 0 to 25%
* O=Cc1c(O)ccc2c(=O)c3ccc(O)c(C=O)c3oc12 | 26 to 50%
* COc1ccc2c(=O)c3ccccc3oc2c1O | 0 to 25%
* C=Cc1cc2c(=O)c3ccccc3oc2c(OC)c1O | 0 to 25%
* O=c1c2ccccc2oc2cc(O)ccc12 | 0 to 25%
* O=c1c2ccccc2oc2c(O)cccc12 | 0 to 25%
* COc1ccc2oc3ccccc3c(=O)c2c1OC | 0 to 25%
* COc1c(O)ccc2c(=O)c3ccccc3oc12 | 0 to 25%
* COc1ccccc1C(=O)c1ccc(OC)c(OC)c1O | 0 to 25%
* COc1cc2oc3c(OC)c4c(cc3c(=O)c2cc1OC)CCC(C)(C)O4 | 0 to 25%
* CCCOc1ccc(NCC(C)C)c2c(=O)c3ccccc3sc12 | 0 to 25%
* COc1ccc2c(=O)c3cc(C(=O)N[C@H](CO)c4ccccc4)ccc3oc2c1 | 51 to 75%
* O=c1c2ccc(O)cc2oc2cc(O)ccc12 | 0 to 25%
* COc1cc([C@H]2Oc3ccc4c(=O)c5ccccc5oc4c3O[C@@H]2CO)ccc1O | 0 to 25%
* COc1ccc(Oc2ccccc2C(=O)O)cc1OC | 0 to 25%
* CCCOc1ccc(N2CCCCC2)c2c(=O)c3ccccc3sc12 | 26 to 50%
* COc1cc(CO)c2c(=O)c3ccccc3oc2c1OC | 0 to 25%
* O=C(O)Cc1ccc2oc3ccccc3c(=O)c2c1 | 0 to 25%
* O=c1c2ccc(O[C@H]3O[C@H](CO)[C@@H](O)[C@@H](O)[C@@H]3O)cc2oc2cc(O[C@@H]3O[C@@H](CO)[C@H](O)C(O)[C@H]3O)ccc12 (some centres undefined) | 0 to 25%
* O=c1c2ccccc2oc2cccc(OCCCCCBr)c12 | 0 to 25%
* CCN(CC)c1ccc2c(=O)c3cc4c(c(OC)c3oc2c1)CCC(C)(C)O4 | 51 to 75%
* COc1cc2oc3c(OC)c4c(cc3c(=O)c2cc1OC)OC(C)(C)CC4 | 0 to 25%
* C=CCOc1ccc(/C=C/C(=O)/C=C/c2ccc(OCC=C)c(OC)c2)cc1OC | 0 to 25%

* * *

# Species on record: Danio rerio
# METHOD SUMMARY: Lipid lowering activity in zebrafish embryos at 5 uM by Nile red fat metabolism assay
# Type: functional, organism-based
Calls of active or inactive are those of the source. The calls are words filed in the database; no cut-off is given here.
PROPERTY NAME: Activity

* COc1cc(/C=C/C(=O)/C=C/c2ccc(O)c(OC)c2)ccc1O | Active
* COc1cc(C(Br)Br)c2c(=O)c3ccccc3oc2c1OC | Active
* CC1(C)C=Cc2cc(O)c3c(=O)c4ccccc4oc3c2O1 | Active
* COc1ccc2c(=O)c3ccccc3oc2c1OC | Active
* COc1c2c(cc3c(=O)c4cc(C)ccc4oc13)CCC(C)(C)O2 | Active
* COc1cccc2c(=O)c3ccccc3oc12 | Active
* COc1ccc2c(=O)c3ccccc3oc2c1O | Active
* O=C(COc1ccc2c(=O)c3ccccc3oc2c1)N[C@H](c1ccccc1)[C@@H](O)c1ccccc1 | Active
* O=c1c2ccccc2oc2cccc(OCCCCCBr)c12 | Active
* CC1(C)C=Cc2c(cc3c(=O)c4ccccc4oc3c2O)O1 | Active
* COc1c2c(cc3c(=O)c4cc(Cl)ccc4oc13)OC(C)(C)CC2 | Active
* COc1ccc2oc3ccccc3c(=O)c2c1OC | Active
* C#CCOc1ccc(/C=C/C(=O)/C=C/c2ccc(OCC#C)c(OC)c2)cc1OC | Active
* COc1cc(CO)c2c(=O)c3ccccc3oc2c1OC | Active
* C=Cc1cc2c(=O)c3ccccc3oc2c(OC)c1O | Active
* COc1cccc2oc3ccccc3c(=O)c12 | Active
* CCCOc1ccc(NCC(C)C)c2c(=O)c3ccccc3sc12 | Active
* COc1cc2c(c3oc4ccccc4c(=O)c13)OC(C)(C)C=C2 | Active
* O=c1c2ccccc2oc2ccc(O)c(O)c12 | Active
* C=CCOc1ccc(/C=C/C(=O)/C=C/c2ccc(OCC=C)c(OC)c2)cc1OC | Active
* COc1cc2c(c3oc4ccccc4c(=O)c13)OC(C)(C)CC2 | Active
* COc1cc2oc3ccccc3c(=O)c2cc1OC | Active
* O=C(O)Cc1ccc2c(=O)c3ccccc3oc2c1 | Active
* O=c1c2ccccc2oc2cc(O)c(O)cc12 | Active
* CC1(C)C=Cc2cc3c(=O)c4ccccc4oc3c(O)c2O1 | Active

Just for reference, ChEMBL document CHEMBL4152195 is where these values come from.
